# measured target: CD3 (antigen of the binding affinity table of Example 1) (UniProt P07766)
# protocol text: kinetic fit with two-state parameters; method not given
Kindly supply the reported kon values for the records listed here.
// units = M⁻¹ s⁻¹; emit number, no label

Lab note: H2L5 (antibody, V domains shown) VH: QVQLQQSGAEVAKPGASVKVSCKASGYTFTRYTMHWVRQAPGQGLEWMGYINPSRGYTNYNQKFKDRATLTRDKSISTAYMELSRLRSDDTAVYYCARYYDDHYSLDYWGQGTTLTVSS VL: DIQMTQSPSSLSASVGDRVTITCSASSSVSYMNWYQQKPGKAPKRWIYDTSKLASGVPSRFSGSGSGTDFTLTISSLQPEDFATYYCQQWSSNPFTFGSGTKLEINR gave kon of 5.02e+06

Summary for this binder, H4L6 (antibody, V domains shown) VH: QVQLQQSGAEVKKPGASVKMSCKASGYTFTRYTMHWVRQAPGQGLEWIGYINPSRGYTNYNQKFKDRVTLTTDTSISTAYMELSRLRSDDTAVYYCARYYDDHYSLDYWGQGTTLTVSS VL: DIQMTQSPSSLSASVGDRVTITCSASSSVSYMNWYQQKPGKAPKLWIYDTSKLASGVPSRFSGSGSGTDYTLTISSLQPEDFATYYCQQWSSNPFTFGSGTKLEINR : kon is 2.02e+06
